assay: Solubility determinations in SIF buffers (FaSSIF, FeSSIF, FaSSGF); type: physicochemical; conditions: FaSSGF (ph 1.6), t = 24 h @37° C.
Below is a list of entries, each paired with its recorded Solubility value.

Example molecules with recorded Solubility:
{"molecule": "COc1ccc2c(ccn2C[C@@H](C)N(C)C)c1.O=C(O)c1ccccc1 [Compound 1 · Benzoate]", "value": "25.59 mg/mL"}
{"molecule": "COc1ccc2c(ccn2C[C@@H](C)N(C)C)c1.Cl [Compound 1 · HCl]", "value": ">30 mg/mL"}
{"molecule": "COc1ccc2c(ccn2C[C@@H](C)N(C)C)c1.O=C(O)/C=C/C(=O)O [Compound 1 · Fumarate]", "value": ">30 mg/mL"}

The record that follows has no Solubility shown yet.
Sample COc1ccc2c(ccn2C[C@@H](C)N(C)C)c1.O=C(O)/C=C\C(=O)O [Compound 1 · Maleate] — what was its Solubility?
>30 mg/mL
